system.tested: human PCSK9 / human LDLR EGFa domain interaction (Homo sapiens (Human), UniProt Q8NBP7)
Sequence (Q8NBP7 31-152 partner, one chain of several): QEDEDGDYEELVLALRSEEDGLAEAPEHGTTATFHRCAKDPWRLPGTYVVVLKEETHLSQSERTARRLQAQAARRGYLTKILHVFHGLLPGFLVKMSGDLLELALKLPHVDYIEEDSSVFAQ
assay.protocol: TR-FRET assay of inhibition of the PCSK9-LDLR protein-protein interaction
Type: binding
test.conditions: TR-FRET, 20 nM human PCSK9, 20 nM human LDLR EGFa domain, 2 hours room temperature; read-out: IC50
Starred links: 1 amine or outer side, 2 acyl side, 3 side chain; linkers in the order of their positions; H or OH if unused. Non-standard residues stand in square brackets, D forms with d. Residues, ends and D or L forms follow the SMILES beside them. Trp(5-F) = N[C@@H](Cc1c[nH]c2ccc(F)cc12)C(=O)O; Asp(3,3-Me2) = CC(C)(C(=O)O)[C@H](N)C(=O)O; X4 = O=C(CCSCc1cccc(CSCCN[*:1])c1)[*:2]; NMeY = CN[C@@H](Cc1ccc(O)cc1)C(=O)O; αMeP = C[C@@]1(C(=O)O)CCCN1
IC50 for assorted compounds

[[record]]
compound = "COc1ccc(C[C@@H]2NC(=O)[C@H](Cc3cnc[nH]3)NC(=O)[C@H](CC(=O)O)NC(=O)[C@H](Cc3c[nH]c4ccc(F)cc34)NC(=O)[C@H](Cc3c[nH]c4ccc(F)cc34)NC(=O)[C@H](C)NC(=O)[C@H](NC(C)=O)CCc3cn(nn3)-c3ccc(cc3)C[C@@H](C(N)=O)NC(=O)[C@]3(C)CCCN3C2=O)cc1"
readout_name = "IC50"
measurement = "0.1 to 100 nM"

[[record]]
compound = "NCCCC[C@@H]1NC(=O)CCCCCn2cc(nn2)CCC[C@@H](C(N)=O)NC(=O)[C@@H]2CCCN2C(=O)[C@H](Cc2ccc(O)cc2)NC(=O)[C@H](Cc2c[nH]cn2)NC(=O)[C@H](CC(=O)O)NC(=O)[C@H](Cc2c[nH]c3ccc(F)cc23)NC(=O)[C@H](Cc2c[nH]c3ccc(F)cc23)NC(=O)CNC1=O"
readout_name = "IC50"
measurement = "1000 to 12100 nM"


// moving on: another record for IC50
q: Returns the measured IC50 for the input compound. Input: C[C@H]1NC(=O)[C@H](CCCCN)NC(=O)CCSCc2cccc(c2)CSCCNC(=O)[C@]2(C)CCCN2C(=O)[C@H](Cc2ccc(O)cc2)N(C)C(=O)[C@H](Cc2c[nH]cn2)NC(=O)[C@H](C(C)(C)C(=O)O)NC(=O)[C@H](Cc2c[nH]c3ccc(F)cc23)NC(=O)[C@H](Cc2c[nH]c3ccc(F)cc23)NC1=O [Compound 383] (cyclo(H[NMeY][αMeP][X4]K[dA][Trp(5-F)][Trp(5-F)][Asp(3,3-Me2)]))
a: 0.1 to 100 nM

----------
system.tested: PCSK9 (Homo sapiens (Human))
Sequence (Q8NBP7 153-692): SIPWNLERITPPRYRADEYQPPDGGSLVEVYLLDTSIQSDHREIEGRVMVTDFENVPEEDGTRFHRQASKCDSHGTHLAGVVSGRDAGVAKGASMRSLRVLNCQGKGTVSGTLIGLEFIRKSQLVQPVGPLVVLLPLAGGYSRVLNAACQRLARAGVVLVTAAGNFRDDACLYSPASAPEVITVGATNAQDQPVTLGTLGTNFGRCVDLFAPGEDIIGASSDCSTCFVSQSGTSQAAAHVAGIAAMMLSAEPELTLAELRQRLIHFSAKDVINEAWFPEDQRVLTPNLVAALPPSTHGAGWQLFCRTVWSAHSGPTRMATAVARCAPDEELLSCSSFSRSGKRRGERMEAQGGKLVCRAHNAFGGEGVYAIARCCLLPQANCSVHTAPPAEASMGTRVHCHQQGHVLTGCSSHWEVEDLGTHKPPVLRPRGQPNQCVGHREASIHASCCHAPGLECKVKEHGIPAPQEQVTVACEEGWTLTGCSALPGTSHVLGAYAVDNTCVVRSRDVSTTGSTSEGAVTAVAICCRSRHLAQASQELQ
assay.protocol: PCSK9 Alexa FRET Plus assay (displacement of AlexaFluor647 tagged cyclic peptide Reagent B)
Assay type: binding
test.conditions: Alexa FRET Plus, 0.5 nM PCSK9, 960 nM AF cyclic peptide Reagent B; read-out: IC50
pIC50: −log10 of the molar value. Where a name gives a salt, the structure may show the parent alone. Starred links: 1 amine or outer side, 2 acyl side, 3 side chain; linkers in the order of their positions; H or OH if unused. Positions of bridges follow the written chain, without caps; N, C: chain ends. Non-standard residues stand in square brackets, D forms with d. Residues, ends and D or L forms follow the SMILES beside them. *: point of attachment. NHCH2(1,3-C6H4)CH2CO = O=C(Cc1cccc(CN[*:1])c1)[*:2]; Trp(5-F) = N[C@@H](Cc1c[nH]c2ccc(F)cc12)C(=O)O; Phe(4-CH2NH2) = NCc1ccc(C[C@H](N)C(=O)O)cc1; X3 = O=C(CCSCc1cc(F)cc(CSCCN[*:1])c1)[*:2]; Pro(cis-4-F) = O=C(O)[C@@H]1C[C@H](F)CN1; γGlu = O=C(O)[C@H](CCC(=O)[*:2])N[*:1]; AEF = NCCOc1ccc(C[C@H](N)C(=O)O)cc1; Glutaryl = O=C(CCCC(=O)[*:2])[*:1]; αMeP = C[C@@]1(C(=O)O)CCCN1; Dap = NC[C@H](N)C(=O)O; Tfa = O=C(C(F)(F)F)*; AEA = NCCOCC(=O)O
// reported pIC50 for each item listed

q: Lab note: need pIC50 for COc1ccc(C[C@@H]2NC(=O)[C@H]([C@@H](C)O)NC(=O)[C@@H]3C[C@H](F)CN3C(=O)[C@H](Cc3c[nH]c4ccc(F)cc34)NC(=O)[C@H](Cc3c[nH]c4ccc(F)cc34)NC(=O)[C@@H](C)NC(=O)[C@H](CCCCN)NC(=O)[C@@H](NC(=O)C(F)(F)F)CC(=O)NCCOc3ccc(cc3)C[C@@H](C(N)=O)NC(=O)[C@]3(C)CCCN3C2=O)cc1 [Compound 124] (Tfa-DK[dA][Trp(5-F)][Trp(5-F)][Pro(cis-4-F)]TY(Me)[αMeP][AEF]-NH2; lactam 1-10) on PCSK9 (Homo sapiens (Human)), anyone have it?
a: 7.00 to 10.00

q: Checklist item: pIC50 tested on PCSK9 (Homo sapiens (Human)), entry `CC(=O)N[C@@H]1CCC/C=C/CO[C@H]2C[C@@H](C(N)=O)N(C2)C(=O)[C@H](Cc2ccc(O)cc2)NC(=O)[C@H](Cc2cnc[nH]2)NC(=O)[C@H](CC(=O)O)NC(=O)[C@H](Cc2c[nH]c3ccc(F)cc23)NC(=O)[C@H](Cc2c[nH]c3ccc(F)cc23)NC(=O)CNC1=O` , value?
a: 6.30 to 7.00

q: Under PCSK9 (Homo sapiens (Human)): pIC50 value of COc1ccc(C[C@@H]2NC(=O)[C@H](Cc3cnc[nH]3)NC(=O)[C@H](CC(=O)O)NC(=O)[C@H](Cc3c[nH]c4ccc(F)cc34)NC(=O)[C@H](Cc3c[nH]c4ccc(F)cc34)NC(=O)[C@@H](C)NC(=O)[C@H](CNC(=O)COCCN)NC(=O)CCSCc3cc(F)cc(c3)CSCCNC(=O)[C@]3(C)CCCN3C2=O)cc1 [Compound 423] (cyclo(DHY(Me)[αMeP][X3][Dap](AEA)[dA][Trp(5-F)][Trp(5-F)])) ?
a: 7.00 to 10.00

q: API: value(readout=pIC50, system=PCSK9 (Homo sapiens (Human))) for record COc1ccc(C[C@@H]2NC(=O)[C@H](Cc3cnc[nH]3)NC(=O)[C@H](CC(=O)O)NC(=O)[C@H](Cc3c[nH]c4ccc(F)cc34)NC(=O)[C@H](Cc3c[nH]c4ccc(F)cc34)NC(=O)[C@@H](C)NC(=O)[C@H](NC(C)=O)CCCCNC(=O)Cc3cccc(c3)CNC(=O)CC[C@@H](C(=O)O)NC(=O)[C@]3(C)CCCN3C2=O)cc1 [Compound 396] (Ac-[dK][dA][Trp(5-F)][Trp(5-F)]DHY(Me)[αMeP][γGlu][NHCH2(1,3-C6H4)CH2CO]; lactam 1-C)
a: 6.30 to 7.00

q: Checklist item: pIC50 tested on PCSK9 (Homo sapiens (Human)), entry COc1ccc(C[C@@H]2NC(=O)[C@H](Cc3cnc[nH]3)NC(=O)[C@H](CC(=O)O)NC(=O)[C@H](Cc3c[nH]c4ccc(F)cc34)NC(=O)[C@H](Cc3c[nH]c4ccc(F)cc34)NC(=O)[C@@H](C)NC(=O)CCCC(=O)NCc3ccc(cc3)C[C@@H](C(N)=O)NC(=O)[C@]3(C)CCCN3C2=O)cc1 [Compound 417] ([dA][Trp(5-F)][Trp(5-F)]DHY(Me)[αMeP][Phe(4-CH2NH2)]-NH2; linker N-8 via Glutaryl) , value?
a: 6.30 to 7.00
